Numbers sourced from patent US20180016324A1.

Kindly state pEC50 for each of the entries shown.
Target: T1, ZIKV prM/E polyprotein on virus-like particles (VLPs) from HEK293T/17 cells (Zika virus, UniProt A0A024B7W1 123-795)
T1 construct: also called ZIKV prM/E VLPs; Zika prM/E VLPs
Test: MSD ECL, VLPs on plate
Numbers only, as −log10 of the molar value.

{"binder": "H2aM25711N (antibody, V domains shown) VH: EVQLVESGGGLVQPGGSLRLSCAASGFTVSSNYMSWVRQAPGKGLEWVSVIYSGGRTNYGDSVKGRFTISRDNSKNTLYLQMNSLRAEDTAVYYCARENYDFWSGDPYGWDVWGQGTTVTVSS VL: DIQMTQSPSSLSASVGDRVTITCRASQDISNYLAWFQQKPGKAPKSLIYGASSLQRGVPSKFSGSGSGTDFTLTISSLQPEDFATYYCQQYNSYPYTFGQGTKLEIK", "measured": 9.33}

Hi there! I need pEC50 for each item below, if you can.
1. H4H25592P (antibody, V domains shown) VH: QVQLVESGGGVVQPGRSLRLSCAASGFTFSYSGMHWVRQAPGKGLEWVAVISYDGSNKYYADSVKGRFTISRDNSNNILYLQMNSLRAEDTAVYYCAKDWGGRFDPWGQGTLVTVSS VL: DIQMTQSPSSLSASVGDRVTITCRASQGISSYLAWYQQIPGKVPKLLIYAASTLHSGVPSRFSGSGSGTDFTLTISSLQPADVATYYCQKYNSAPLTFGGGTKVEIK
2. H4H25602P (antibody, V domains shown) VH: EVQLVESGGGLVQPGGSLRLSCAASGFTVSSNYMSWVRQAPGSGLEWVSVIYSGGITHYVDSVKGRFTISRHNSKNTLYLQMNSLRAEDTAMYYCARERYSGITGNPYGFDIWGQGTMVTVSS VL: DIQLTQSPSFLSASVGDRVTITCWASQDISSYLAWYQQKPGIAPKLLIYAASTLQSGVPSRFSGSGSGTEFTLTISSLQPEDFATYYCQQLNIYPFTFGPGTKVDIK
3. H4H25617P (antibody, V domains shown) VH: EVQLVESGGGLVQPGGSLRLSCSASGFTFTTYAMSWVRQAPGRGLEWVSSISGTGVSTYYADSVKGRFTISRDNSKNALYLQMNSLTAEDTAVYYCAKDSGTYHWGQGTLVTVSS VL: EIVLTQSPATLSLSPGERATLSCRASQSVDSYLAWYQQKPGQAPRLLIYDASNRATGIPARFSGSGSGTDFTLTISSLESEDFAVYYCQQRRNWPQFTFGGGTKVEIK

1: 9.67; 2: 8.81; 3: 9.12
